- System: Earias vittella
- protocol_text: Antifeedant activity against third-instar larval stage of Earias vitella assessed as decrease in diet consumption at 10 ug/cm3 administered through artificial diet containing Abelmoschus esculentus seed powder after 24 hr relative to acetone-treated control
- Format: functional
- Parameters: scale not given: the % may be the effect or the level left
Consider the following compounds and their measured Activity readings.
Kindly provide the numeric value in % only, without the unit symbol.

- compound: "CC[C@@](C)(OC(C)=O)C(=O)O[C@H]1[C@H](OC(C)=O)C[C@@H]2[C@@](C)([C@@H]3C[C@H]4C=CO[C@H]4O3)[C@H](C)C[C@H](OC(C)=O)[C@@]2(COC(C)=O)[C@@]12CO2 [CLERODENDRIN B ACETATE]"
  test_result: 69

Turning now to a further compound:
Quick one: Activity of "CC(=O)OC[C@@]12[C@@H](OC(C)=O)C[C@@H](C)[C@](C)([C@@H]3C[C@H]4C=CO[C@H]4O3)[C@H]1C[C@@H](O)[C@H](OC(=O)C(C)(C)OC(C)=O)[C@]21CO1" ?
41.54

----------
- Test system: Earias vittella
- protocol_text: Insecticidal activity against adult Earias vitella assessed as adult emergence at 5 ug/cm3 administered through artificial diet containing Abelmoschus esculentus seed powder (reference value: 88%)
- Assay type: functional
Consider the following molecules and their measured Activity readings.
Kindly provide the numeric value in % only, without the unit symbol.

Study these solved cases before continuing.
- molecule: "CC(=O)OC[C@@]12[C@@H](OC(C)=O)C[C@@H](C)[C@](C)([C@@H]3C[C@H]4C=CO[C@H]4O3)[C@H]1CCC[C@]21CO1 [CLERODIN]"
  endpoint: "Activity"
  test_result: 68.6
- molecule: "CC[C@@](C)(OC(C)=O)C(=O)O[C@H]1[C@H](O)C[C@@H]2[C@@](C)([C@@H]3C[C@H]4C=CO[C@H]4O3)[C@H](C)C[C@H](OC(C)=O)[C@@]2(COC(C)=O)[C@@]12CO2 [CLERODENDRIN B]"
  endpoint: "Activity"
  test_result: 52.5
- molecule: "CC(=O)OC[C@@]12[C@@H](OC(C)=O)C[C@@H](C)[C@](C)([C@@H]3C[C@H]4CC(O)O[C@H]4O3)[C@H]1CC[C@H](OC(C)=O)[C@]21CO1 (stereo partly specified) [15-HYDROXYEPICARYOPTIN]"
  endpoint: "Activity"
  test_result: 68
- molecule: "CC(=O)OC[C@@]12[C@@H](OC(C)=O)C[C@@H](C)[C@](C)([C@@H]3C[C@H]4C=CO[C@H]4O3)[C@H]1C[C@@H](O)[C@H](OC(=O)C(C)(C)OC(C)=O)[C@]21CO1 [CLERODENDRIN C]"
  endpoint: "Activity"
  test_result: 76
- molecule: "CC(=O)OC[C@@]12[C@@H](OC(C)=O)C[C@@H](C)[C@](C)([C@@H]3C[C@H]4C=CO[C@H]4O3)[C@H]1CC[C@H](OC(C)=O)[C@]21CO1 [3-EPICARYOPTIN]"
  endpoint: "Activity"
  test_result: 60.4

Turning now to a further molecule:
Quick one: Activity of CC[C@@](C)(OC(C)=O)C(=O)O[C@H]1[C@H](OC(C)=O)C[C@@H]2[C@@](C)([C@@H]3C[C@H]4C=CO[C@H]4O3)[C@H](C)C[C@H](OC(C)=O)[C@@]2(COC(C)=O)[C@@]12CO2 [CLERODENDRIN B ACETATE] ?
72.5

----------
- Test system: Earias vittella
- protocol_text: Insecticidal activity against pupal stage of Earias vitella assessed as pupal mortality at 10 ug/cm3 administered through artificial diet containing Abelmoschus esculentus seed powder (reference value: 8%)
- Type: functional
Consider the following compounds and their measured mortality readings.
Kindly provide the numeric value in % only, without the unit symbol.

Study these solved cases before continuing.
- compound: "CC[C@@](C)(OC(C)=O)C(=O)O[C@H]1[C@H](O)C[C@@H]2[C@@](C)([C@@H]3C[C@H]4C=CO[C@H]4O3)[C@H](C)C[C@H](OC(C)=O)[C@@]2(COC(C)=O)[C@@]12CO2"
  mortality, %: 42.5
- compound: "CC[C@@](C)(OC(C)=O)C(=O)O[C@H]1[C@H](OC(C)=O)C[C@@H]2[C@@](C)([C@@H]3C[C@H]4C=CO[C@H]4O3)[C@H](C)C[C@H](OC(C)=O)[C@@]2(COC(C)=O)[C@@]12CO2 [CLERODENDRIN B ACETATE]"
  mortality, %: 32
- compound: "CC(=O)OC[C@@]12[C@@H](OC(C)=O)C[C@@H](C)[C@](C)([C@@H]3C[C@H]4CC(O)O[C@H]4O3)[C@H]1CC[C@H](OC(C)=O)[C@]21CO1 (stereo partly specified) [15-HYDROXYEPICARYOPTIN]"
  mortality, %: 34
- compound: "CC(=O)OC[C@@]12[C@@H](OC(C)=O)C[C@@H](C)[C@](C)([C@@H]3C[C@H]4C=CO[C@H]4O3)[C@H]1CCC[C@]21CO1"
  mortality, %: 32
- compound: "CC(=O)OC[C@@]12[C@@H](OC(C)=O)C[C@@H](C)[C@](C)([C@@H]3C[C@H]4C=CO[C@H]4O3)[C@H]1C[C@@H](O)[C@H](OC(=O)C(C)(C)OC(C)=O)[C@]21CO1"
  mortality, %: 22.5

Turning now to a further compound:
Observed mortality on Earias vittella for CC(=O)OC[C@@]12[C@@H](OC(C)=O)C[C@@H](C)[C@](C)([C@@H]3C[C@H]4C=CO[C@H]4O3)[C@H]1CC[C@H](OC(C)=O)[C@]21CO1 [3-EPICARYOPTIN] , please.
40

----------
- Test system: Spodoptera litura
- protocol_text: Insecticidal activity against pupal stage of Spodoptera litura in compound-treated castor leaves assessed as pupal mortality at 10 ug/cm2 relative to control
- Type: functional
endpoint: mortality at 10 µg/cm2 (%)
Kindly provide the numeric value in % only, without the unit symbol.

Study these solved cases before continuing.
- molecule: "CC(=O)OC[C@@]12[C@@H](OC(C)=O)C[C@@H](C)[C@](C)([C@@H]3C[C@H]4CC(O)O[C@H]4O3)[C@H]1CC[C@H](OC(C)=O)[C@]21CO1 (stereo partly drawn) [15-HYDROXYEPICARYOPTIN]"
  uom: "%"
  test_result: 27.6
- molecule: "CC(=O)OC[C@@]12[C@@H](OC(C)=O)C[C@@H](C)[C@](C)([C@@H]3C[C@H]4C=CO[C@H]4O3)[C@H]1CCC[C@]21CO1"
  uom: "%"
  test_result: 27

Turning now to a further molecule:
Observed mortality at 10 µg/cm2 on Spodoptera litura for "CC(=O)OC[C@@]12[C@@H](OC(C)=O)C[C@@H](C)[C@](C)([C@@H]3C[C@H]4C=CO[C@H]4O3)[C@H]1C[C@@H](O)[C@H](OC(=O)C(C)(C)OC(C)=O)[C@]21CO1" , please.
22.7

----------
Consider the following molecules and their measured Time readings.
- Tested on: Spodoptera litura
- protocol_text: Insecticidal activity against female adult Spodoptera litura in compound-treated castor leaves assessed as adult longevity time at 10 ug/cm2 (reference value: 10 +/- 0.63 days)
- Type: functional

- molecule: "CC[C@@](C)(OC(C)=O)C(=O)O[C@H]1[C@H](O)C[C@@H]2[C@@](C)([C@@H]3C[C@H]4C=CO[C@H]4O3)[C@H](C)C[C@H](OC(C)=O)[C@@]2(COC(C)=O)[C@@]12CO2 [CLERODENDRIN B]"
  endpoint: "Time"
  test_result: "5.2 days"
- molecule: "CC(=O)OC[C@@]12[C@@H](OC(C)=O)C[C@@H](C)[C@](C)([C@@H]3C[C@H]4C=CO[C@H]4O3)[C@H]1CCC[C@]21CO1 [CLERODIN]"
  endpoint: "Time"
  test_result: "7 days"

Quick one: Time of CC(=O)OC[C@@]12[C@@H](OC(C)=O)C[C@@H](C)[C@](C)([C@@H]3C[C@H]4CC(O)O[C@H]4O3)[C@H]1CC[C@H](OC(C)=O)[C@]21CO1 (stereo partly specified) [15-HYDROXYEPICARYOPTIN] ?
7 days

Quick one: Time of CC(=O)OC[C@@]12[C@@H](OC(C)=O)C[C@@H](C)[C@](C)([C@@H]3C[C@H]4C=CO[C@H]4O3)[C@H]1C[C@@H](O)[C@H](OC(=O)C(C)(C)OC(C)=O)[C@]21CO1 [CLERODENDRIN C] ?
8.2 days

Quick one: Time of CC[C@@](C)(OC(C)=O)C(=O)O[C@H]1[C@H](OC(C)=O)C[C@@H]2[C@@](C)([C@@H]3C[C@H]4C=CO[C@H]4O3)[C@H](C)C[C@H](OC(C)=O)[C@@]2(COC(C)=O)[C@@]12CO2 [CLERODENDRIN B ACETATE] ?
8 days

Quick one: Time of CC(=O)OC[C@@]12[C@@H](OC(C)=O)C[C@@H](C)[C@](C)([C@@H]3C[C@H]4C=CO[C@H]4O3)[C@H]1CC[C@H](OC(C)=O)[C@]21CO1 [3-EPICARYOPTIN] ?
6 days
